Format: in vitro ADME
Conditions: dog intestinal homogenate, 37° C., 20 μg/mL
recorded-endpoint: Biological t½ (min) (Dog) Intestine
Just the number please, in min, no unit attached.

Fill in the blank: the reported Biological t½ (min) (Dog) Intestine of CCOC(=O)OC(C)OP(=O)(CO[C@H](C)Cn1cnc2c(N)ncnc21)OC(C)OC(=O)OCC (some centres unmarked) is ____.
62.4

Note, next up: `C[C@H](Cn1cnc2c(N)ncnc21)OCP(=O)(OCOC(=O)OC(C)(C)C)OCOC(=O)OC(C)(C)C`
26.6

Note, next up: `CC(C)OC(=O)OCOP(=O)(CO[C@H](C)Cn1cnc2c(N)ncnc21)OCOC(=O)OC(C)C`
52.6

Note, next up: `CC(C)COC(=O)OCOP(=O)(CO[C@H](C)Cn1cnc2c(N)ncnc21)OCOC(=O)OCC(C)C`
15

Note, next up: `C[C@H](Cn1cnc2c(N)ncnc21)OCP(=O)(OCOC(=O)NC(C)(C)C)OCOC(=O)NC(C)(C)C`
107.5

Note, next up: CCOC(=O)OCOP(=O)(CO[C@H](C)Cn1cnc2c(N)ncnc21)OCOC(=O)OCC [Bis-EtCOM PMPA, Bis-ethyl Oxymethyl Carbonate of PMPA]
23.3
